Biological target: T1, Rhesus SLC34A2 (Rhesus, UniProt F7HDA3 1-690)
T1 construct: whole, on cells
T1 sequence: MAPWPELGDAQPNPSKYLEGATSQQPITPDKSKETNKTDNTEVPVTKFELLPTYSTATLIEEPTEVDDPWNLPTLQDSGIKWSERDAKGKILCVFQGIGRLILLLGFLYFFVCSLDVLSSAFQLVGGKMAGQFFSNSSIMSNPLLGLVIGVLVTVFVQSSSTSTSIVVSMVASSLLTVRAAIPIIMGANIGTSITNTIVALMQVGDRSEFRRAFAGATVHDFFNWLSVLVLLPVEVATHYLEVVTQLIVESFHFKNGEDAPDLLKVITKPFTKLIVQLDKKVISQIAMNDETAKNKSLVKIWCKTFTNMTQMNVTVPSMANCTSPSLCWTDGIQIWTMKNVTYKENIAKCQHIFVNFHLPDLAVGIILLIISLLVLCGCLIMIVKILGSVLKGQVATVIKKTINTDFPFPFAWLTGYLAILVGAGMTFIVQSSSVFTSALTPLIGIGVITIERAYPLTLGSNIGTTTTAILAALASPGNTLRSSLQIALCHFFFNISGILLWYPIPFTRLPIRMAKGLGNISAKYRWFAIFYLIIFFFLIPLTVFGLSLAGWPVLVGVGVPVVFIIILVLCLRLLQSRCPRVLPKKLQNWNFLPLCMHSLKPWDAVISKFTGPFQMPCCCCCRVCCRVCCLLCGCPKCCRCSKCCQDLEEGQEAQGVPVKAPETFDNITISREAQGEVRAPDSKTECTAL
Assay: FACS, HEK293/Rhesus SLC34A2 cells
reported.property: Top (MFI)
Output spec: scalar in MFI, unitless text.

binder | Top (MFI)
xi69B11D8 hIgG1 (antibody, V domains shown, chimeric, hIgG1) VH: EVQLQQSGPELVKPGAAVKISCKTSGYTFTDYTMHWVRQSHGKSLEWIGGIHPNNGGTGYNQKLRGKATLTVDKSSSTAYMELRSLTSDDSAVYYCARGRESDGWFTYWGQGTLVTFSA VL: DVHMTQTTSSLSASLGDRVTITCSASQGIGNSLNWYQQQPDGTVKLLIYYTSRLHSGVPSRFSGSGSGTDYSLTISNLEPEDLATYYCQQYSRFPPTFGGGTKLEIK | 11600

-- ask So what's the measured Top (MFI) for this one? xi30H9B8F9 hIgG1 (antibody, V domains shown, chimeric, hIgG1) VH: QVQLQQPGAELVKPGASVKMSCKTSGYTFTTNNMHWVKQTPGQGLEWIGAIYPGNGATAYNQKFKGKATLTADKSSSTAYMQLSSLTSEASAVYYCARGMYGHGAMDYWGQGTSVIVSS VL: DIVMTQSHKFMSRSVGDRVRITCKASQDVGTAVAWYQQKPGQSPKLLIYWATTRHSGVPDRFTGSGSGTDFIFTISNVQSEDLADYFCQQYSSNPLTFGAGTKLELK
-- reply 17000

-- ask Field entry: xi91C9F1 hIgG1 (antibody, V domains shown, chimeric, hIgG1) VH: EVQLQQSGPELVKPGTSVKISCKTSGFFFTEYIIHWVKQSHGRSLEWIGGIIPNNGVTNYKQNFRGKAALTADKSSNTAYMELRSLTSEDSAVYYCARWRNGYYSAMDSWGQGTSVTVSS VL: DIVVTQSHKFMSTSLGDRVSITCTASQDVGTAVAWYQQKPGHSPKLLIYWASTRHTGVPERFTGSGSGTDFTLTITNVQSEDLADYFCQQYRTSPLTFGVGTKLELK
-- reply 12200
